# assay.text: Metabolic (microsomal) stability assay
# Type: in vitro ADME
# condition.details: human liver microsomes 1 mg/mL, 1 μM compound, 37° C.; predicted clearance as percent of liver blood flow
# Procedure: The metabolic degradation of the test compound is assayed at 37° C. with pooled liver microsomes (mouse (MLM), rat (RLM) or human (HLM)). […] Additionally, the NADPH-independent degradation is monitored in incubations without NADPH, terminated at the last time point by addition of acetonitrile. […] An aliquot of the supernatant is assayed by LC-MS/MS to quantify the concentration of parent compound in the individual samples. […]
result.type: HLM QH (%)
Form entry: value (%) — number only.

Before answering, review these 2 worked examples.
{"columns": ["compound", "HLM QH [%]"],
 "data": [
  ["C[C@H](Oc1nc(-c2noc3c2CCC[C@@]32CCCc3sc(N)c(C#N)c32)cc(N2C[C@H](C)N(C(=O)/C=C/CF)[C@@H](C)C2)n1)[C@@H]1CCCN1C [Ib-7]", 64],
  ["C[C@H](Oc1nc(-c2noc3c2CCC[C@@]32CCCc3sc(N)c(C#N)c32)cc(N2C[C@H](C)N(C(=O)/C=C/c3cccnc3)[C@@H](C)C2)n1)[C@@H]1CCCN1C [Ib-8]", 49]
]}

stdin: Return value of HLM QH for input C=C(F)C(=O)N1[C@@H](C)CN(c2cc(-c3noc4c3CCC[C@@]43CCCc4sc(N)c(C#N)c43)nc(O[C@@H](C)[C@@H]3CCCN3C)n2)C[C@@H]1C [Ib-6] , no commentary.
stdout: 72

====

# tested.system: CYP3A4 (Homo sapiens, UniProt P08684)
# Construct: assayed in human liver microsomes (0.02 mg/mL) with midazolam (15 μM) as a substrate; from tissue; host or cells: human liver microsomes
# Sequence (P08684 whole entry): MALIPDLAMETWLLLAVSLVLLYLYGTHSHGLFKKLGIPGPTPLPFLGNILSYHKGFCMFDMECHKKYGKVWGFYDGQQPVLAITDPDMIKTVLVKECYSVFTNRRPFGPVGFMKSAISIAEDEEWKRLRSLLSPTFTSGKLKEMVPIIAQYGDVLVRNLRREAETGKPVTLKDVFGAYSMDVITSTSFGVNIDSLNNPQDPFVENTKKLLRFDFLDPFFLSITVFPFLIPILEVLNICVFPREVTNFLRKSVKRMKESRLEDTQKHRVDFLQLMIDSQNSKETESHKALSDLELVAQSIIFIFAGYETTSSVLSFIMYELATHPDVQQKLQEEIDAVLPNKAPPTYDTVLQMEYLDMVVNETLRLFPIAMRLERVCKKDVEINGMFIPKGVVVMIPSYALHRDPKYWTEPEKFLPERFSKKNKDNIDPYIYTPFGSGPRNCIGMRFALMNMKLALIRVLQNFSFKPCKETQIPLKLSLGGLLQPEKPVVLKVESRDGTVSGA
# assay.text: Mechanism based inhibition of CYP3A4 assay (MBI 3A4)
# Assay type: in vitro ADME
# condition.details: human liver microsomes, 25 uM compound; hydroxy-midazolam formation after 30 min preincubation relative to 0 min
Listing: MBI 3A4 of selected molecules
Form entry: value (%) — number only.

stdin: Return value of MBI 3A4 for input C=CC(=O)N1[C@@H](C)CN(c2cc(O[C@@H](C)[C@@H]3CCCN3C)nc(-c3noc4c3CCC[C@@]43CCCc4sc(N)c(C#N)c43)n2)C[C@@H]1C [Ib-3] , no commentary.
stdout: 65

stdin: Return value of MBI 3A4 for input C=C(F)C(=O)N1[C@@H](C)CN(c2cc(O[C@@H](C)[C@@H]3CCCN3C)nc(-c3onc4c3CCC[C@@]43CCCc4sc(N)c(C#N)c43)n2)C[C@@H]1C [Ia-1] , no commentary.
stdout: 61

stdin: Return value of MBI 3A4 for input C=C(F)C(=O)N1[C@@H](C)CN(c2cc(O[C@@H](C)[C@@H]3CCCN3C)nc(-c3noc4c3CCC[C@@]43CCCc4sc(N)c(C#N)c43)n2)C[C@@H]1C [Ib-5] , no commentary.
stdout: 69

stdin: Return value of MBI 3A4 for input C=CC(=O)N1[C@@H](C)CN(c2cc(O[C@@H](C)[C@@H]3CCCN3C)nc(-c3onc4c3CCC[C@@]43CCCc4sc(N)c(C#N)c43)n2)C[C@@H]1C [Ia-2] , no commentary.
stdout: 62

====

# tested.system: protein-protein interaction between SOS1 and KRAS G12C (Homo sapiens, UniProt P01116, C118S/C51S/C80L/G12C)
# Construct: His6 (N); SOS1: in-house or Viva Biotech Ltd; host or cells: E. coli (KRAS)
# Sequence (P01116 1-169 isoform P01116-2 G12C/C51S/C80L/C118S): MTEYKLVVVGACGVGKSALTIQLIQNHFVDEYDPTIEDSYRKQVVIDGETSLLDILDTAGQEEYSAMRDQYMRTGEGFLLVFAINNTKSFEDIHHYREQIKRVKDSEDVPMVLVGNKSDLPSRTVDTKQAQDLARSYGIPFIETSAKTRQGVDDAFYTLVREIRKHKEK
# assay.text: KRAS::SOS1 AlphaScreen Binding Assay
# condition.details: Table 19, intermediates C-3/C-4; 7.5 nM KRAS G12C, 10 μM GDP, 5 nM GST-SOS1; read-out: IC50 G12C::SOS 1
Listing: IC50 of selected compounds

Before answering, review these 2 worked examples.
{"columns": ["compound", "IC50"],
 "data": [
  ["C[C@H](Oc1cc(N2C[C@H](C)N[C@@H](C)C2)nc(-c2noc3c2CCC[C@@]32CCCc3sc(N)c(C#N)c32)n1)[C@@H]1CCCN1C [C-4a]", "2.4 nM"],
  ["C[C@H](Oc1cc(N2C[C@H](C)N[C@@H](C)C2)nc(-c2onc3c2CCC[C@@]32CCCc3sc(N)c(C#N)c32)n1)[C@@H]1CCCN1C [C-3a]", "4.6 nM"]
]}

stdin: Return value of IC50 for input C[C@H](Oc1nc(-c2noc3c2CCC[C@@]32CCCc3sc(N)c(C#N)c32)cc(N2C[C@H](C)N[C@@H](C)C2)n1)[C@@H]1CCCN1C [C-4c] , no commentary.
stdout: 37 nM

====

# assay.text: Caco-2 assay
# Type: in vitro ADME
# condition.details: human, efflux ratio PappBA/PappAB, 10 μM compound, pH 7.4, read-out: Caco ER
result.type: efflux ratio at 90 min, 10 μM

{"columns": ["compound", "efflux ratio at 90 min, 10 μM"],
 "data": [
  ["C=CC(=O)N1[C@@H](C)CN(c2cc(-c3onc4c3CCC[C@@]43CCCc4sc(N)c(C#N)c43)nc(O[C@@H](C)[C@@H]3CCCN3C)n2)C[C@@H]1C [Ia-4]", 30.7],
  ["C=C(F)C(=O)N1[C@@H](C)CN(c2cc(O[C@@H](C)[C@@H]3CCCN3C)nc(-c3noc4c3CCC[C@@]43CCCc4sc(N)c(C#N)c43)n2)C[C@@H]1C [Ib-5]", 1.1],
  ["C[C@H](Oc1cc(N2C[C@H](C)N(C(=O)/C=C/CF)[C@@H](C)C2)nc(-c2noc3c2CCC[C@@]32CCCc3sc(N)c(C#N)c32)n1)[C@@H]1CCCN1C [Ib-1]", 28.6],
  ["C=CC(=O)N1[C@@H](C)CN(c2cc(O[C@@H](C)[C@@H]3CCCN3C)nc(-c3onc4c3CCC[C@@]43CCCc4sc(N)c(C#N)c43)n2)C[C@@H]1C [Ia-2]", 8.6]
]}

Now let's try a different one.
stdin: Return value of efflux ratio at 90 min, 10 μM for input C=CC(=O)N1[C@@H](C)CN(c2cc(O[C@@H](C)[C@@H]3CCCN3C)nc(-c3noc4c3CCC[C@@]43CCCc4sc(N)c(C#N)c43)n2)C[C@@H]1C [Ib-3] , no commentary.
stdout: 3

====

# tested.system: Ba/F3 KRASG12C cells (Homo sapiens, UniProt P01116, G12C, cells depend on it)
# Sequence (P01116 whole entry G12C): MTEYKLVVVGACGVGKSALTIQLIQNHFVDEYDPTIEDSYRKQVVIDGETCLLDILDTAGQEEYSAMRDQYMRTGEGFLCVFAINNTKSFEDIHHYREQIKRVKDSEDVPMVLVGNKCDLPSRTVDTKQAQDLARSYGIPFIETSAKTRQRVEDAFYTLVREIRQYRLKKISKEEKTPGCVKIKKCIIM
# assay.text: Ba/F3 cell model proliferation assay (AlamarBlue, 72 h)
# Format: cell-based
# condition.details: without IL-3, read-out: IC50 Ba/F3 KRASG12C
result.type: GI50 (nM)
Form entry: value (nM) — number only.

{"columns": ["sample.smiles", "result.type", "result.value"],
 "data": [
  ["C[C@H](Oc1cc(N2C[C@H](C)N(C(=O)/C=C/CF)[C@@H](C)C2)nc(-c2noc3c2CCC[C@@]32CCCc3sc(N)c(C#N)c32)n1)[C@@H]1CCCN1C", "GI50", 0.5],
  ["C=C(F)C(=O)N1[C@@H](C)CN(c2cc(-c3onc4c3CCC[C@@]43CCCc4sc(N)c(C#N)c43)nc(O[C@@H](C)[C@@H]3CCCN3C)n2)C[C@@H]1C", "GI50", 3.7]
]}

stdin: Return value of GI50 for input `C=CC(=O)N1[C@@H](C)CN(c2cc(O[C@@H](C)[C@@H]3CCCN3C)nc(-c3onc4c3CCC[C@@]43CCCc4sc(N)c(C#N)c43)n2)C[C@@H]1C` , no commentary.
stdout: 0.1

====

# assay.text: Solubility measurement (DMSO solution precipitation method)
# Assay type: physicochemical
# condition.details: aqueous buffer, kinetic from dmso stock; McIlvaine buffer pH 6.8, 24 h, ambient temperature; read-out: Solubility pH 6.8
// 0 strictly below 60 µg/mL in solubility at 24 h; 1 otherwise

{"columns": ["sample.smiles", "class"],
 "data": [
  ["C=CC(=O)N1[C@@H](C)CN(c2cc(-c3noc4c3CCC[C@@]43CCCc4sc(N)c(C#N)c43)nc(O[C@@H](C)[C@@H]3CCCN3C)n2)C[C@@H]1C", 1]
]}

stdin: Hello, I need to know if `C=C(F)C(=O)N1[C@@H](C)CN(c2cc(O[C@@H](C)[C@@H]3CCCN3C)nc(-c3onc4c3CCC[C@@]43CCCc4sc(N)c(C#N)c43)n2)C[C@@H]1C` has measured solubility at 24 h not below 60 µg/mL. Thanks!
stdout: 0

stdin: Hello, I need to know if `C=CC(=O)N1[C@@H](C)CN(c2cc(O[C@@H](C)[C@@H]3CCCN3C)nc(-c3noc4c3CCC[C@@]43CCCc4sc(N)c(C#N)c43)n2)C[C@@H]1C` has measured solubility at 24 h not below 60 µg/mL. Thanks!
stdout: 1
